biological target: full length N-terminally FLAG-tagged PARP1 (Homo sapiens, UniProt P09874); experiment: PARP1 probe displacement HTRF assay; conditions: read-out: PARP1 HTRF; binned Kd, PARP1 probe displacement HTRF
Sequence (P09874 whole entry): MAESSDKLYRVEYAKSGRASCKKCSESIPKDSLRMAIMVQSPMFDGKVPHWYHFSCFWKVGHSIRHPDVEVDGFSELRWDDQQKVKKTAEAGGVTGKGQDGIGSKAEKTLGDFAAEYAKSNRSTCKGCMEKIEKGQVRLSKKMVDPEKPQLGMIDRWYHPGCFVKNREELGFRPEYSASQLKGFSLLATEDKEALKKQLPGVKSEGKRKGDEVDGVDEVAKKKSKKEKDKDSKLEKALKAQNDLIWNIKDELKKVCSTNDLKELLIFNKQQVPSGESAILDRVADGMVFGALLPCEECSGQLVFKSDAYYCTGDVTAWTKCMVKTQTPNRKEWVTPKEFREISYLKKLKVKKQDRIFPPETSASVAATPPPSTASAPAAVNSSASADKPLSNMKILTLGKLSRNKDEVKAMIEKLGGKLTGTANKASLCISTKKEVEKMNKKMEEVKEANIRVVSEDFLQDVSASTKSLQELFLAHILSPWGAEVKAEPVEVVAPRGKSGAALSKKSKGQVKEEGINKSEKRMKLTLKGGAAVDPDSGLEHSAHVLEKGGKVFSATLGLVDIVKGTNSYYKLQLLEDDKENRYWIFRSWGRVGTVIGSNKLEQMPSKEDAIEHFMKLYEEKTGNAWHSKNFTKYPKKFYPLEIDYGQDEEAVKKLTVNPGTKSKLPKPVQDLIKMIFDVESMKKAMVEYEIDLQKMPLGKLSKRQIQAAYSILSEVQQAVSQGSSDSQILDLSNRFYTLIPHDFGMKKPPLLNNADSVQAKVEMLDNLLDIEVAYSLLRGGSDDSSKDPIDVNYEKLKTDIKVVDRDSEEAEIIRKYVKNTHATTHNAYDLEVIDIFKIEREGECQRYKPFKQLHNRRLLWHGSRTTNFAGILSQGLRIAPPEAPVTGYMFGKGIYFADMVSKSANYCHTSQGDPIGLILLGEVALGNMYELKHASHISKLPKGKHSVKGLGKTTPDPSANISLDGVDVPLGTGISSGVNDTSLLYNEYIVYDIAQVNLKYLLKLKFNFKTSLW
pKd: −log10 of the molar value.
property: pKd

| compound | pKd |
| --- | --- |
| CNC(=O)c1ccc(N2CC(N3CCCC(Cc4nc5ccccc5c(=O)[nH]4)C3)C2)cn1 (single isomer, unassigned) [Compound 51b] | 5.00 to 6.00 |

Prompt: Supply measured pKd of CNC(=O)c1ccc(N2CCC(N3CCCC(c4nc5sc6c(c5c(=O)[nH]4)CCC6)C3)CC2)cn1 (single isomer, unassigned) [Compound 185b] in your reply.
Completion: 6.00 to 7.00

Prompt: Supply measured pKd of CNC(=O)c1ccc(N2CCC(N3CCC(c4cc5c(F)ccc(F)c5c(=O)[nH]4)C3)CC2)cn1 (single isomer, unassigned) [Compound 180a] in your reply.
Completion: > 8.00

Prompt: Supply measured pKd of CNC(=O)c1ccc(N2CCC(N3CCCC(c4nc5ccncc5c(=O)[nH]4)C3)CC2)cn1 (single isomer, unassigned) [Compound 93b] in your reply.
Completion: 5.00 to 6.00
